Entries and their measured Bliss excess follow.
Test system: JHH-2 (Hepatocellular Carcinoma)
Test: Bliss excess, mean over the matrix (fraction); higher = more synergy
Reply with just the number.

Cn1cnc2c(F)c(Nc3ccc(Br)cc3Cl)c(C(=O)NOCCO)cc21 [Selumetinib] + C[C@@H]1COCCN1C2=NC(=NC(=C2)C3(CC3)[S@](=N)(=O)C)C4=C5C=CNC5=NC=C4 [AZD6738] (first compound max 10 µM, 7x7, partner max 10 µM); 0.0264
Cc1c2c(nn1C)CSCc1cc(n(C)n1)CSc1cc(c3ccccc3c1)OCCCc1c(C(=O)O)n(C)c3c-2c(Cl)ccc13 [AZD5991] + CC(=O)O[C@H]1C(=O)[C@@]2(C)[C@H]([C@H](OC(=O)c3ccccc3)[C@]3(O)C[C@H](OC(=O)[C@H](O)[C@@H](NC(=O)c4ccccc4)c4ccccc4)C(C)=C1C3(C)C)[C@]1(OC(C)=O)CO[C@@H]1C[C@@H]2O [Paclitaxel] (first compound max 1 µM, 7x7, partner max 3 µM); 0.017
C[C@@H](Nc1cc(F)cc(F)c1)c1cc(C(=O)N(C)C)cc2c(=O)cc(N3CCOCC3)oc12 [AZD8186] + C1CN(CCC1(C(=O)N[C@@H](CCO)C2=CC=C(C=C2)Cl)N)C3=NC=NC4=C3C=CN4 [AZD5363] (first compound max 10 µM, 7x7, partner max 10 µM); -0.0637

Name the recorded Bliss excess for CCN(CCO)CCCOc1ccc2c(Nc3cc(CC(=O)Nc4cccc(F)c4)[nH]n3)ncnc2c1 [AZD2811] + O=C(c1cc(Cc2n[nH]c(=O)c3ccccc23)ccc1F)N1CCN(C(=O)C2CC2)CC1 [Olaparib] (first compound max 1 µM, 7x7, partner max 10 µM) .
-0.0748

Moving on to CN(CCO)CC[C@H](CSc1ccccc1)Nc1ccc(S(=O)(=O)NC(=O)c2ccc(N3CCC([C@@H](O)c4ccccc4-c4ccc(Cl)cc4)CC3)cc2)cc1S(=O)(=O)C(F)(F)F [AZD4320] + C=CCn1c(=O)c2cnc(Nc3ccc(N4CCN(C)CC4)cc3)nc2n1-c1cccc(C(C)(C)O)n1 [AZD1775] (first compound max 1 µM, partner max 1 µM)
-0.0067

What about CS(=O)(=O)CCNCc1ccc(-c2ccc3ncnc(Nc4ccc(OCc5cccc(F)c5)c(Cl)c4)c3c2)o1 [Lapatinib] + Cn1cnc2c(F)c(Nc3ccc(Br)cc3Cl)c(C(=O)NOCCO)cc21 [Selumetinib] (first compound max 10 µM, 7x7, partner max 10 µM) ?
-0.0273

Okay, and O=C(c1cc(Cc2n[nH]c(=O)c3ccccc23)ccc1F)N1CCN(C(=O)C2CC2)CC1 [Olaparib] + CC1(C)CCC(CN2CCN(c3ccc(C(=O)NS(=O)(=O)c4ccc(NCC5CCOCC5)c([N+](=O)[O-])c4)c(Oc4cnc5[nH]ccc5c4)c3)CC2)=C(c2ccc(Cl)cc2)C1 [Venetoclax] (first compound max 10 µM, 7x7, partner max 1 µM) ?
-0.0527

Subsequent entry: C[C@@H]1COCCN1c1cc(C2([S@](C)(=N)=O)CC2)nc(-c2ccnc3[nH]ccc23)n1 [AZD6738] + Nc1ccn([C@@H]2O[C@H](CO)[C@@H](O)C2(F)F)c(=O)n1 [Gemcitabine] (first compound max 10 µM, 7x7, partner max 0.3 µM)
0.0069

Moving on to CC(=O)Nc1cccc(-n2c(=O)n(C3CC3)c(=O)c3c(Nc4ccc(I)cc4F)n(C)c(=O)c(C)c32)c1 [Trametinib] + Cc1nc(-c2cn3c(n2)-c2ccc(-c4cnn(C(C)(C)C(N)=O)c4)cc2OCC3)n(C(C)C)n1 [Taselisib] (first compound max 1 µM, 7x7, partner max 10 µM)
-0.0221

* * *

Measured combination Emax by item
System: NCI-H2087 (Lung Adenocarcinoma)
Experiment: combination Emax (second highest fraction inhibited in the dose matrix, 72 h); higher = more inhibition; extreme values may be limits of the assay
Number only, no unit.

CS(=O)(=O)CCNCc1ccc(-c2ccc3ncnc(Nc4ccc(OCc5cccc(F)c5)c(Cl)c4)c3c2)o1 [Lapatinib] + NC1(c2ccc(-c3nc4ccn5c(=O)[nH]nc5c4cc3-c3ccccc3)cc2)CCC1 [MK-2206] (first compound max 10 µM, 7x7, partner max 10 µM); 0.293
CN(CCO)CC[C@H](CSc1ccccc1)Nc1ccc(S(=O)(=O)NC(=O)c2ccc(N3CCC([C@@H](O)c4ccccc4-c4ccc(Cl)cc4)CC3)cc2)cc1S(=O)(=O)C(F)(F)F [AZD4320] + C1CN(CCC1(C(=O)N[C@@H](CCO)C2=CC=C(C=C2)Cl)N)C3=NC=NC4=C3C=CN4 [Capivasertib] (first compound max 1 µM, 7x7, partner max 3 µM); 0.232

Here is another compound to look at.
GET /values?readout=combination Emax&item= COc1nnc2ccc(N3CCC(c4ccc(OCCN5CCN(C)C(=O)[C@H]5C)cc4)CC3)nn12 [AZD5153] + C=CCn1c(=O)c2cnc(Nc3ccc(N4CCN(C)CC4)cc3)nc2n1-c1cccc(C(C)(C)O)n1 [AZD1775] (first compound max 1 µM, partner max 1 µM)
0.627

* * *

Test system: UACC-812 (Breast Carcinoma)
Experiment: Bliss excess, mean over the matrix (fraction); higher = more synergy
Reported Bliss excess values are given for each entry in this list.
# answer = number (no unit)

Sample answers from the record:
COc1nnc2ccc(N3CCC(c4ccc(OCCN5CCN(C)C(=O)[C@H]5C)cc4)CC3)nn12 [AZD5153] + C=CCn1c(=O)c2cnc(Nc3ccc(N4CCN(C)CC4)cc3)nc2n1-c1cccc(C(C)(C)O)n1 [AZD1775] (first compound max 1 µM, partner max 1 µM); -0.0066
CC(=O)Nc1cccc(-n2c(=O)n(C3CC3)c(=O)c3c(Nc4ccc(I)cc4F)n(C)c(=O)c(C)c32)c1 [Trametinib] + Cc1nc(-c2cn3c(n2)-c2ccc(-c4cnn(C(C)(C)C(N)=O)c4)cc2OCC3)n(C(C)C)n1 [Taselisib] (first compound max 1 µM, 7x7, partner max 10 µM); 0.0522
Cc1c2c(nn1C)CSCc1cc(n(C)n1)CSc1cc(c3ccccc3c1)OCCCc1c(C(=O)O)n(C)c3c-2c(Cl)ccc13 [AZD5991] + CN(C)CCCOc1ccc(-c2ccc3ncc4c(c3c2)n(C2CCOCC2)c(=O)n4C)cn1 [AZD0156] (first compound max 1 µM, 7x7, partner max 1 µM); 0.0465

Now look at this entry.
Field request: Bliss excess | item: Cc1cc2ncnn2cc1Nc1ncc2c(n1)n(C1CCOCC1)c(=O)n2C [AZD7648] + CCN(CCO)CCCOc1ccc2c(Nc3cc(CC(=O)Nc4cccc(F)c4)[nH]n3)ncnc2c1 [AZD2811] (first compound max 10 µM, 7x7, partner max 1 µM)
0.0276

* * *

System: DMS-53 (Small Cell Lung Carcinoma)
Assay: Bliss excess, mean over the matrix (fraction); higher = more synergy
Observable: Bliss excess
Give the figure by itself; no unit, no explanation.

Recorded Bliss excess, per entry:
Cc1c2c(nn1C)CSCc1cc(n(C)n1)CSc1cc(c3ccccc3c1)OCCCc1c(C(=O)O)n(C)c3c-2c(Cl)ccc13 [AZD5991] + CCN(CCO)CCCOc1ccc2c(Nc3cc(CC(=O)Nc4cccc(F)c4)[nH]n3)ncnc2c1 [AZD2811] (first compound max 1 µM, 7x7, partner max 1 µM); 0.0525
CCc1c2c(nc3ccc(O)cc13)-c1cc3c(c(=O)n1C2)COC(=O)[C@]3(O)CC [SN-38] + O=C(c1cc(Cc2n[nH]c(=O)c3ccccc23)ccc1F)N1CCN(C(=O)C2CC2)CC1 [Olaparib] (first compound max 0.3 µM, 7x7, partner max 10 µM); 0.0457
CN(CCO)CC[C@H](CSc1ccccc1)Nc1ccc(S(=O)(=O)NC(=O)c2ccc(N3CCC([C@@H](O)c4ccccc4-c4ccc(Cl)cc4)CC3)cc2)cc1S(=O)(=O)C(F)(F)F [AZD4320] + Cn1cnc2c(F)c(Nc3ccc(Br)cc3Cl)c(C(=O)NOCCO)cc21 [Selumetinib] (first compound max 1 µM, 7x7, partner max 3 µM); 0.0964

Next molecule, Bliss excess to be filled in.
# returns recorded Bliss excess (system: DMS-53 (Small Cell Lung Carcinoma)) for CC(=O)c1c(C)c2cnc(Nc3ccc(N4CCNCC4)cn3)nc2n(C2CCCC2)c1=O [Palbociclib] + CN(CC[C@H](CSC1=CC=CC=C1)NC2=C(C=C(C=C2)S(=O)(=O)NC(=O)C3=CC=C(C=C3)N4CCC(CC4)[C@H](C5=CC=CC=C5C6=CC=C(C=C6)Cl)O)S(=O)(=O)C(F)(F)F)CCO [AZD4320] (first compound max 10 µM, 7x7, partner max 1 µM)
0.038

* * *

Test system: HCC1395 (Breast Carcinoma)
Assay: Bliss excess, mean over the matrix (fraction); higher = more synergy
Observable: Bliss excess
The reply should be a number, written without any unit.

Some solved entries appear below for comparison.
NC1(C(=O)N[C@@H](CCO)c2ccc(Cl)cc2)CCN(c2ncnc3[nH]ccc23)CC1 [Capivasertib] + CC(C)n1c(=O)n(C)c2cnc3cc(F)c(-c4ccc(OCCCN5CCCCC5)nc4)cc3c21 [AZD1390] (first compound max 10 µM, 7x7, partner max 0.3 µM); 0.0154
COc1nnc2ccc(N3CCC(c4ccc(OCCN5CCN(C)C(=O)[C@H]5C)cc4)CC3)nn12 [AZD5153] + C[C@@H]1COCCN1C2=NC(=NC(=C2)C3(CC3)[S@](=N)(=O)C)C4=C5C=CNC5=NC=C4 [AZD6738] (first compound max 1 µM, 7x7, partner max 10 µM); -0.0241
CCc1c2c(nc3ccc(O)cc13)-c1cc3c(c(=O)n1C2)COC(=O)[C@]3(O)CC [SN-38] + O=C(c1cc(Cc2n[nH]c(=O)c3ccccc23)ccc1F)N1CCN(C(=O)C2CC2)CC1 [Olaparib] (first compound max 0.3 µM, 7x7, partner max 10 µM); 0.0315
C=CCn1c(=O)c2cnc(Nc3ccc(N4CCN(C)CC4)cc3)nc2n1-c1cccc(C(C)(C)O)n1 [AZD1775] + C1CN(CCC1(C(=O)N[C@@H](CCO)C2=CC=C(C=C2)Cl)N)C3=NC=NC4=C3C=CN4 [Capivasertib] (first compound max 3 µM, partner max 3 µM); -0.0085
Cc1nc(-c2cn3c(n2)-c2ccc(-c4cnn(C(C)(C)C(N)=O)c4)cc2OCC3)n(C(C)C)n1 [Taselisib] + O=C(Nc1ccc2[nH]nc(-c3ccncc3)c2c1)[C@@H]1CCN(CC(=O)N2CCN(c3ccc(-c4ncccn4)cc3)CC2)C1 [SCH772984] (first compound max 10 µM, 7x7, partner max 5 µM); 0.0294
N#Cc1cnc(Nc2cc(NC[C@H]3CNCCO3)c(C(F)(F)F)cn2)cn1 [SRA737] + O=c1[nH]cc(F)c(=O)[nH]1 [5-Fluorouracil] (first compound max 10 µM, 7x7, partner max 20 µM); -0.0584

Shift focus to the following entry.
Bliss excess lookup needed for COc1cc2ncnc(Nc3ccc(F)c(Cl)c3)c2cc1OCCCN1CCOCC1 [Gefitinib] + CC(C)n1c(=O)n(C)c2cnc3cc(F)c(-c4ccc(OCCCN5CCCCC5)nc4)cc3c21 [AZD1390] (first compound max 10 µM, 7x7, partner max 0.3 µM) , thanks.
-0.0265
